assay: Solubility in ethyl acetate by fractionation and phase separation, HPLC analysis of the solvent layer; assay type: physicochemical; conditions: organic solvent or mixture
Assay metric: solubility at 2 h

Exercise: Could you please provide reported solubility at 2 h for OCC(O)CO ? Thanks!
Solution: 3000 to 6000 µg/mL
